FYI, the data here is from patent US20210220356A1.

Assign CC50 at 6 days to each entry below.
# RUN DESCRIPTION: Cytotoxicity determination in HepG2.2.15 cells (CCK-8)
# Format: cell-based
# ASSAY CONTEXT: human, HepG2.2.15 cells, HepG2.2.15 cells, 5,000 cells/well, 6 days of compound treatment, CCK-8 absorbance 450 nm, highest concentration 100 uM
Write it as a number; the unit µM goes unstated.

Request: Give its CC50 at 6 days value. Item: CCOC(=O)C1=C(C2CCc3nn(CCC(=O)O)cc3C2)NC(c2nccs2)=NC1c1cccc(F)c1Cl (single isomer, unassigned) [Compound 40b]
Response: 21.5

Request: Please do the same for CCOC(=O)C1=C(C2Cc3cn(CCC(=O)O)nc3C(C)(C)C2)NC(c2nccs2)=NC1c1ccc(F)c(F)c1Cl (stereo not drawn) [Compound 55a] as well.
Response: 8.5

Request: Would you kindly repeat that for COC(=O)C1=C(C2CCc3nn(CCC(=O)O)cc3C2)NC(c2nccs2)=NC1c1cccc(F)c1Br (single isomer, unassigned) [Compound 45b] ?
Response: 18.2

Request: Further, for CCOC(=O)C1=C(C2CCc3c(cn(CCC(=O)O)c3C#N)C2)NC(c2nccs2)=NC1c1ccc(F)c(F)c1Cl (stereo not drawn) ?
Response: 5

Request: Next up: COC(=O)C1=C(C2CCc3nc(CCC(=O)O)ncc3C2)NC(c2nccs2)=NC1c1ccc(F)c(F)c1Cl (stereo not drawn)
Response: 26.4

Request: One more compound: COC(=O)C1=C(C2CCc3nn(CC(C)(C)C(=O)O)cc3C2)NC(c2nccs2)=NC1c1ccc(F)c(F)c1Cl (stereo not drawn) [Compound 84d]
Response: 16.4
